Molecular target: T1, Fusion protein of extracellular domain of human TIGIT and His-tag (human TIGIT ECD-his) (human)
T1 chain: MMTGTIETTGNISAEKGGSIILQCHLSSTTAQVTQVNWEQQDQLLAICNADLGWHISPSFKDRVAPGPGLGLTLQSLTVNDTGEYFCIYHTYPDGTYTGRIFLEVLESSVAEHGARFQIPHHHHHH
Assay: BIAcore; KD ratio to TIGIT-CHI-070
Readout label: Fold change vs chimeric antibodies (KD) (fold)

* TIGIT-070-H1L3 (antibody, V domains shown, Humanized anti-TIGIT antibody) VH: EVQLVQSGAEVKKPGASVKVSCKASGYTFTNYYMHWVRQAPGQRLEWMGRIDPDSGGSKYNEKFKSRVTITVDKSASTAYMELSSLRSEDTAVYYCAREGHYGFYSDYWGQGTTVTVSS VL: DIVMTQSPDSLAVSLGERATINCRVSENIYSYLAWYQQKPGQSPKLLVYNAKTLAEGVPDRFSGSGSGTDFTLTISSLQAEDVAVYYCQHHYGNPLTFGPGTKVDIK | 0.74
* TIGIT-070-H3L3 (antibody, V domains shown, Humanized anti-TIGIT antibody) VH: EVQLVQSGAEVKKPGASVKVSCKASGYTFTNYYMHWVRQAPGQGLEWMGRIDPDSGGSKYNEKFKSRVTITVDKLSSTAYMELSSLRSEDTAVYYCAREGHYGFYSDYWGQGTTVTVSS VL: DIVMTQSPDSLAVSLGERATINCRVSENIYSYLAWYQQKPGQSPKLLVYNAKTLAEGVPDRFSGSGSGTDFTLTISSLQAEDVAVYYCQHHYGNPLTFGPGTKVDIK | 1.17
